# measurement-target: T1, human CD203c expressed on the surface of KU812 cells (human, UniProt O14638 1-875)
# T1 construct: whole, on cells; also called cell-surface CD203c; cell surface CD203c on KU812 cells
# T1 sequence (looked up): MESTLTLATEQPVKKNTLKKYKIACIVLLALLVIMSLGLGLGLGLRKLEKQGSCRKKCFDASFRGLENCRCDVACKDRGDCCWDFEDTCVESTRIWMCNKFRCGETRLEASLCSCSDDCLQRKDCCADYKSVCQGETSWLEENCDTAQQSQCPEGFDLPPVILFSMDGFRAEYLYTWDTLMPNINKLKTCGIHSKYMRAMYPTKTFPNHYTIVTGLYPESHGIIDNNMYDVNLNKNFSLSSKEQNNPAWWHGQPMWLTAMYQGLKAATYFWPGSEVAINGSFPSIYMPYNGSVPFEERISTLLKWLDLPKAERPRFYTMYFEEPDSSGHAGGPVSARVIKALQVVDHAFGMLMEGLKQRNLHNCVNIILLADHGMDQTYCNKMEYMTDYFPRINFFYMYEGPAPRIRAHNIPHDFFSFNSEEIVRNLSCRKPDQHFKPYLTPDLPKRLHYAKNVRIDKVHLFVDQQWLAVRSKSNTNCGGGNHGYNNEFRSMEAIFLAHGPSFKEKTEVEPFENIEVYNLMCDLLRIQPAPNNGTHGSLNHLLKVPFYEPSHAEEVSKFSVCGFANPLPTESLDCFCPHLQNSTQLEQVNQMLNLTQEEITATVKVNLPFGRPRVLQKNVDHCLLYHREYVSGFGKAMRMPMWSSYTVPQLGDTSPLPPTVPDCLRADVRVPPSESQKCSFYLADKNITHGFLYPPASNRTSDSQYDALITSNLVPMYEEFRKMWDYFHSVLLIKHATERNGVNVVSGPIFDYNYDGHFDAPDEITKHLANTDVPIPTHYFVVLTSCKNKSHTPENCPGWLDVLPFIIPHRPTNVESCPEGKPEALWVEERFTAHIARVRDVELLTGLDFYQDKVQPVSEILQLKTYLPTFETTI
# measurement-protocol: flow cytometry on KU812 cells, MFI (530/30 - 488nm) of live cells
property-name: binding result

- binder: "C4 (antibody, V domains shown, also called variant C4; C4 VH domain) VH: EVQLVQSGAEVKKPGESLKISCKGSGYRFGSYWIGWVRQMPGKGLEWMGDIYPGNSDTRYSPSFQGQVTISADKSISTAYLQWSSLKASDTAMYYCARKDYYYYAMDVWGQGTTVTVSS VL: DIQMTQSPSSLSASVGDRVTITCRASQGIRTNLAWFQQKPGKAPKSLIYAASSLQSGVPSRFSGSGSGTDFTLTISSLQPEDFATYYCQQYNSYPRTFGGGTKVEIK"
  property-name: "binding result"
  val: "binds"
- binder: "15 (antibody, V domains shown, also called variant 15; 15 VH domain) VH: EVQLVQSGAEVKKPGESLKISCKGSGYRFTSYWIGWVRQMPGKGLEWMGIIYPGDSDTRYSPSFQGQVTISADKSISTAYLQWSSLKASDTAMYYCARKDYYYGTMDVWGQGTTVTVSS VL: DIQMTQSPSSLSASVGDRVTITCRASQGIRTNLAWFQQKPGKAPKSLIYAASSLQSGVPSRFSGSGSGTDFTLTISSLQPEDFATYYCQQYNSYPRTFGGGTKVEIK"
  property-name: "binding result"
  val: "binds"
- binder: "11 (antibody, V domains shown, also called variant 11; 11 VH domain) VH: EVQLVQSGAEVKKPGESLKISCKGSGYRFTSYWIGWVRQMPGKGLEWMGIIYPGDSDTRYSPSFQGQVTISADKSISTAYLQWSSLKASDTAMYYCARKDYYYGAFDVWGQGTTVTVSS VL: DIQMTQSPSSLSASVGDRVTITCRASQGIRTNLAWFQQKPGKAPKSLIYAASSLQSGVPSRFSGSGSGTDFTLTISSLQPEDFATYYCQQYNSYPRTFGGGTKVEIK"
  property-name: "binding result"
  val: "binds"
